This collection of values is drawn from patent US20210220331A1.

experiment: Pharmacokinetics in mice; format: in vivo; conditions: mouse, plasma, IV
measurementKind: Cmax (µg/mL)
Report the value in µg/mL with no unit label.

Query: Report Cmax, nothing else, for this compound: `COc1ccc(CN2C(=O)c3ccccc3C2=O)c(OC)c1`
Response: 284

====

test: Pharmacokinetics in mice; assay type: in vivo; conditions: mouse, plasma, iv, read-out: Relative Bioavailability
measurementKind: bioavailability (%)
Dear colleague, please return just the value in %, with no unit written.

Query: Indicate its recorded bioavailability; the compound in question is COc1ccc(CN2C(=O)c3ccccc3C2=O)c(OC)c1 [IRES-J007]
Response: 100

====

assay: Pharmacokinetics in mice; assay type: in vivo; settings: mouse, plasma, IV
measurementKind: Tmax (min)
All answers are understood in min, so give the number only.

Query: Give a short answer stating reported Tmax for `COc1ccc(CN2C(=O)c3ccccc3C2=O)c(OC)c1` .
Response: 3
